# test: Tissue distribution after single oral SZ-A (40 mg/kg) in SD rats, plasma and 12 tissues
# Assay type: in vivo
# protocol conditions: Sprague-Dawley, rat, Brown adipose tissue, n=5, read-out: Tmax
test readout: Tmax (min)
Output spec: scalar in min, unitless text.

Below, 2 compounds whose answers are already recorded.
# smiles record, test result
records = [
    ("OC[C@H]1NC[C@H](O)[C@@H](O)[C@@H]1O", 30),
    ("OC[C@H]1NCC[C@@H](O)[C@@H]1O", 19.8),
]

# next compound below
Short answer for `OC[C@H]1NC[C@@H](O)[C@@H]1O` : Tmax was 30

* * *

# test: Tissue distribution after single oral SZ-A (40 mg/kg) in SD rats, plasma and 12 tissues
# Format: in vivo
# protocol conditions: rat, Brain, n=5, read-out: AUC(0-t)
test readout: AUC(0-t)

Short answer for OC[C@H]1NC[C@H](O)[C@@H](O)[C@@H]1O [DNJ, 1-deoxynojirimycin] : AUC(0-t) was 2060 ng·h/mL
